- SUBJECT OF TEST: h-TGR5 (Homo sapiens, UniProt Q8TDU6)
- Construct: expressed in transfected cells
- Sequence (Q8TDU6 whole entry): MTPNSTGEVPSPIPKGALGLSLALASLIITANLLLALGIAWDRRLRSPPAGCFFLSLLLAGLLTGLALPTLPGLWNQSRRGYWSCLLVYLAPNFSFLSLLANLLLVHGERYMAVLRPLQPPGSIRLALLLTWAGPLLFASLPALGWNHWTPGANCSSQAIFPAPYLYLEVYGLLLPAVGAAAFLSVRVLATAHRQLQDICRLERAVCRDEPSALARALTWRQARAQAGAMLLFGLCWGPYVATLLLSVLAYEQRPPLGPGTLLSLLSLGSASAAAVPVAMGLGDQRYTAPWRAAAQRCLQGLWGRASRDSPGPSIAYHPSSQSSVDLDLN
- TEST NAME: TGR5 cAMP Assay using Cisbio cAMP Dynamic2 htrf kit (hTGR5CRE-luc HEK 293 cells)
- Assay type: cell-based
- APPLIED CONDITIONS: h-TGR5 cAMP EC50, Table 1; read-out: cAMP (EC50)
pEC50: −log10 of the molar value.
OBSERVABLE: pEC50

- COMPOUND SMILES: "COc1cc(-n2c(C(C)(C)c3ccc(F)cc3)cnc2SCc2ccc(S(=O)(=O)NC(=O)NN3CCCC3)cc2Cl)ccc1F"
  pEC50: "6.00 to 7.00"
- COMPOUND SMILES: "COc1cc(C(C)(C)c2cnc(SCc3c(F)cccc3Cl)n2-c2cccnc2)ccc1Cl"
  pEC50: "6.00 to 7.00"
- COMPOUND SMILES: "CC(C)(c1ccc(F)c(F)c1)c1cnc(SCC2CCN(S(C)(=O)=O)CC2)n1-c1ccc(F)cc1"
  pEC50: "6.00 to 7.00"
- COMPOUND SMILES: "CC(C)(c1ccc(Cl)c(Cl)c1)c1cnc(SCc2ccc(-c3nnn[nH]3)cc2F)n1-c1ccc(F)cc1"
  pEC50: "6.00 to 7.00"
- COMPOUND SMILES: "CCOC(=O)NS(=O)(=O)c1ccc(CSc2ncc(C(C)(C)c3ccc(Cl)c(OC)c3)n2-c2ccc(F)cc2)c(Cl)c1"
  pEC50: "> 7.00"
- COMPOUND SMILES: "CC(C)(c1ccc(Cl)c(Cl)c1)c1cnc(SCc2c(F)cccc2Cl)n1-c1ccc(F)c(F)c1"
  pEC50: "6.00 to 7.00"

Return reported pEC50 values for all items listed beneath this line.
1. COc1cc(C(C)(C)c2cnc(SCc3c(F)cc(C(=O)N[C@@H](CCCN)C(=O)O)cc3Cl)n2-c2ccc(F)cc2)ccc1Cl
2. COc1ccc(C(C)(C)c2cnc(CNc3c(F)cccc3Cl)n2-c2ccc(F)cc2)cc1OC
3. CNS(=O)(=O)c1ccc(C(C)(C)c2cnc(SCc3ccc(S(=O)(=O)NC(=O)NN4CCCC4)cc3Cl)n2-c2ccc(F)cc2)cc1Cl
4. COc1cc(C(C)(C)c2cnc(SCc3ccc(F)cc3Cl)n2-c2ccc(F)cc2)ccc1Cl
5. COCCOCCOCCOCCOCCOCCOCCOCCOCCOCCOCCOCCOCCOCCNS(=O)(=O)c1cc(F)c(CSc2ncc(C(C)(C)c3ccc(Cl)c(OC)c3)n2-c2ccc(F)cc2)c(Cl)c1
6. COc1cc(-n2c(C(C)(C)c3ccc(S(N)(=O)=O)c(Cl)c3)cnc2SCc2ccc(Cl)c(-c3nnn[nH]3)c2)ccc1F
7. CC(C)(c1ccc2ccccc2c1)c1cnc(SCc2c(F)cc(C(=O)O)cc2F)n1-c1ccc(F)cc1

Ans.
1. > 7.00
2. 6.00 to 7.00
3. 5.00 to 6.00
4. 6.00 to 7.00
5. > 7.00
6. 6.00 to 7.00
7. 6.00 to 7.00

Each of the following entries comes with a recorded value; kindly state pEC50 for each.
1. Cc1cc(-n2c(C(C)(C)c3ccc(F)c(F)c3)cnc2SCc2ccc(S(=O)(=O)NC(=O)NN3CCCC3)cc2Cl)ccc1F
2. COc1cc(C(C)(C)c2cnc(SCc3c(F)cc(S(=O)(=O)NCCS(=O)(=O)O)cc3Cl)n2-c2ccc(F)cc2)ccc1Cl
3. Cc1cc(-n2c(C(C)(C)c3ccc(S(C)(=O)=O)cc3)cnc2SCc2ccc(S(=O)(=O)NC(=O)NN3CCCC3)cc2Cl)ccc1F

Ans.
["5.00 to 6.00", "> 7.00", "5.00 to 6.00"]
